Target: T1, Y. lipolytica F1Fo-ATP synthase subunit α (Yarrowia lipolytica, UniProt Q6C326 25-536)
T1 construct: subunit α of the mitochondrial F1Fo-ATP synthase, Yarrowia lipolytica; three copies in each F1 head, in the states αE, αTP and αDP; also called αE; αTP; source: endogenous, purified from Y. lipolytica mitochondria as part of 2YLF1Fo, 1YLF1Fo and the YLF1c10 subcomplex
T1 sequence (Q6C326 25-536): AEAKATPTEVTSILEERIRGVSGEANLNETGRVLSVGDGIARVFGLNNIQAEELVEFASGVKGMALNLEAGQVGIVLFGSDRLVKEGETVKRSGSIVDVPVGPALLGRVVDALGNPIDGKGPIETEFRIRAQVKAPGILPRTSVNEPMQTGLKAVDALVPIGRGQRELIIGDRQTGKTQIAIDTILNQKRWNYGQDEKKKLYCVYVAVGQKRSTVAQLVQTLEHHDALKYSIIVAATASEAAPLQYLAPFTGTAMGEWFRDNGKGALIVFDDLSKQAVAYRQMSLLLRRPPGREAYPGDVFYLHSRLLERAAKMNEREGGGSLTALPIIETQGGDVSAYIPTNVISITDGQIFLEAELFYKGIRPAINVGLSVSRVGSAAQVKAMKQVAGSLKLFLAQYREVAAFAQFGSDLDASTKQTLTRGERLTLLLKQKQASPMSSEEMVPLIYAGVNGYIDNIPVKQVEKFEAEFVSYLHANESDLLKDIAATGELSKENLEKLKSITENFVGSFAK
Assay: cryo-EM structure; single-particle cryo-EM of the purified dimer 2YLF1Fo; C2 symmetry imposed; 7.8 Å overall, 6.9 Å for F1 and 6.2 Å for the Fo dimer after masking; fitted with the YLF1c10 X-ray structure and homology models of the peripheral stalk
Details: both partners purified

BINDER	binding result
Y. lipolytica F1Fo-ATP synthase subunit h (natural protein, Yarrowia lipolytica, UniProt Q6C2V6 20-108, looked up, peripheral stalk subunit h of the mitochondrial F1Fo-ATP synthase, Yarrowia lipolytica; also called equivalent of bovine F6; source: endogenous, purified from Y. lipolytica mitochondria as part of 2YLF1Fo) NLISEAYTREVRAFKAPKLSAKDAEGQVKPWSAPSAPKPPVVEGADAAELQAYAEAPVDVEGQTNSKSASPQANDEDWLAFEEEEGVAV	binds

All figures here come from paper PMC4980432.
